These measurements were taken from the supplement of paper PMC10567573.

B1: ZNF263 (parent)
chain: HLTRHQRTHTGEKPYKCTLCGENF

Variants of: B1
Assay: protein stability index of a GFP-peptide fusion (GPS, HEK-293T) (PSI 1-6); higher = more stable;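 also: lentivirally expressed fusions sorted by FACS into six bins by GFP to DsRed ratio, PSI derived from sequencing read proportions per bin multiplied by bin number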
Conditions: c terminus: a fixed tail appended
experimental-readout: protein stability index
Please reply with the value in numeric form only.

Examples with their reported protein stability index follow.
[[record]]
variant_label = "C17H"
experimental_readout = "protein stability index"
measured_value = 2.89

[[record]]
variant_label = "T8V"
experimental_readout = "protein stability index"
measured_value = 2.65

[[record]]
variant_label = "G11S"
experimental_readout = "protein stability index"
measured_value = 3.45

[[record]]
variant_label = "H9F"
experimental_readout = "protein stability index"
measured_value = 2.22

[[record]]
variant_label = "G21A"
experimental_readout = "protein stability index"
measured_value = 3.27

[[record]]
variant_label = "T3H"
experimental_readout = "protein stability index"
measured_value = 3.4


Ask: Request the reported protein stability index associated with R4K
Reply: 3.47

Ask: Reported protein stability index for R4A : what is it?
Reply: 3.43

Ask: Reported protein stability index, variant P14E : ____
Reply: 3.21

Ask: Name the recorded protein stability index for T18D .
Reply: 2.75

Ask: Dear colleague, I am looking for the recorded protein stability index of the following variant: N23G
Reply: 4.03
